The reported measurements were obtained from ChEMBL document CHEMBL2150854.

- SYSTEM UNDER TEST: Protein smoothened (Mus musculus) (UniProt P56726)
- Sequence (P56726 whole entry): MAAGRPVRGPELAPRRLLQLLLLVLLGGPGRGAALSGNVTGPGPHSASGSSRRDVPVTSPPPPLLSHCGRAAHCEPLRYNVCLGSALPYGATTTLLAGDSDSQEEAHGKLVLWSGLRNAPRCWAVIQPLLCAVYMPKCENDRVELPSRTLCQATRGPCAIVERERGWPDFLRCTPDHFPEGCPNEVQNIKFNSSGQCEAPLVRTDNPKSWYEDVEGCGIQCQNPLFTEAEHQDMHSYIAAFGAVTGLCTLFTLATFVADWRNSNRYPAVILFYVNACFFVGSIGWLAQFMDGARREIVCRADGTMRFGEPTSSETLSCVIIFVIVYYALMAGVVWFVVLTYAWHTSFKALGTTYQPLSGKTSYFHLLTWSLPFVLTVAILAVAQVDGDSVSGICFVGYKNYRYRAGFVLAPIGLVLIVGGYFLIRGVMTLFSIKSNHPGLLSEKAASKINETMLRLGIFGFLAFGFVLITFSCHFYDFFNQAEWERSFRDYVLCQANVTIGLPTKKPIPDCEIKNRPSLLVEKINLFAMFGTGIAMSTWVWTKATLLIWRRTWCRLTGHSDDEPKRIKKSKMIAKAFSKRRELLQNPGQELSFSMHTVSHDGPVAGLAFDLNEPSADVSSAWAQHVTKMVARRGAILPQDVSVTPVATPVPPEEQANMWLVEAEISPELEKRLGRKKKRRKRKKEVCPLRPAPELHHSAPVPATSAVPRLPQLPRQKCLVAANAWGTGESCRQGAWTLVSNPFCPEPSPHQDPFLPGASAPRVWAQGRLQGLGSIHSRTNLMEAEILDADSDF
- MEASUREMENT DESCRIPTION: Inhibition of Smo in mouse C3H10T1/2 cells assessed as inhibition of human Shh-induced cell differentiation after 48 hrs by alkaline phosphatase reporter assay relative to cyclopamine
- Type: cell-based
- REPORTED CONDITIONS: C3H 10T1/2
READOUT NAME: Imax (%)

| SMILES TEXT | Imax [%] |
| --- | --- |
| C[C@H]1[C@@H](c2ccccc2)OC(=O)CCCCC[C@@H](CC(=O)NCc2ccc(Cl)cc2)C(=O)N1C | 59 |
| O=C(C[C@@H]1C/C=C/CCC(=O)N[C@@H](c2ccccc2)COC1=O)NCc1ccc(Cl)cc1 | 95 |
| C[C@@H]1NC(=O)[C@H](CC(=O)NCc2ccc(Cl)cc2)C/C=C/CCC(=O)O[C@@H]1c1ccccc1 | 77 |
| O=C(C[C@@H]1C/C=C/CCC(=O)N[C@H](Cc2ccccc2)COC1=O)NCc1ccc(Cl)cc1 | 90 |
| CC(C)[C@@H]1COC(=O)[C@H](CC(=O)NCc2ccc(Cl)cc2)C/C=C/CCC(=O)N1 | 54 |
| O=C(C[C@@H]1C/C=C/CCC(=O)N[C@H](c2ccc(F)cc2)COC1=O)NCc1ccc(Cl)cc1 | 90 |

[I] O=C(C[C@@H]1C/C=C/C[C@H](Cc2ccccc2)C(=O)N[C@H](c2ccccc2)COC1=O)NCc1ccc(Cl)cc1
[II] O=C(C[C@@H]1C/C=C/CCC(=O)O[C@H](c2ccccc2)CNC1=O)NCc1cccc(Cl)c1
Between I and II , which one shows the larger Imax value? Kindly state the label of the option you pick.
I

[A] O=C(C[C@@H]1C/C=C/CCC(=O)O[C@H](c2ccccc2)CNC1=O)NCCCC(F)(F)F
[B] C[C@H]1NC(=O)[C@H](CC(=O)NCc2ccc(Cl)cc2)C/C=C/CCC(=O)O[C@@H]1c1ccccc1
Endpoint returns the identifier whose Imax is numerically larger, either A or B . Indicate your choice by writing its label.
B

---

- SYSTEM UNDER TEST: Protein smoothened (Mus musculus)
- Sequence (P56726 whole entry): as above
- MEASUREMENT DESCRIPTION: Inhibition of Smo in mouse Ptch-deficient MEF cells assessed as inhibition of Shh-induced Gli1 transcriptional activity
- Assay type: cell-based
Known IC50 of a selection of compounds
Give just the number in µM; leave the unit off.

| SMILES TEXT | READOUT UNITS | IC50 |
| --- | --- | --- |
| O=C(C[C@@H]1C/C=C/CCC(=O)N[C@H](c2ccc(Cl)cc2)COC1=O)NCc1ccc(Cl)cc1 | µM | 3.5 |

I have this compound here, `O=C(C[C@@H]1C/C=C/CCC(=O)N[C@H](Cc2ccccc2)COC1=O)NCc1ccc(Cl)cc1` , and I need its recorded IC50.
8.8
